Assay Explanation: Pharmacokinetic study in plasma samples
Assay type: in vivo, mouse
Reported Conditions: RAG-2, mouse, plasma, intraperitoneal; 10 mg/kg i.p., 2 h; read-out: plasmatic concentration, Mean
Value Kind: concentration at 2 h (nM)
Write it as a number; the unit nM goes unstated.

COc1cc2nc(-c3cc(C)oc3C)cc(NCC3CCN(c4ncc(C(=O)NO)cn4)CC3)c2cc1OC	77.5

Entry under review: COc1cc2nc(-c3ccc(C)o3)cc(NCC3CCN(c4ncc(C(=O)NO)cn4)CC3)c2cc1OC . Reported concentration at 2 h?
27.7

* * *

pIC50 overview
Test Target: HDAC9 (Homo sapiens, UniProt Q9UKV0)
Sequence (Q9UKV0 whole entry): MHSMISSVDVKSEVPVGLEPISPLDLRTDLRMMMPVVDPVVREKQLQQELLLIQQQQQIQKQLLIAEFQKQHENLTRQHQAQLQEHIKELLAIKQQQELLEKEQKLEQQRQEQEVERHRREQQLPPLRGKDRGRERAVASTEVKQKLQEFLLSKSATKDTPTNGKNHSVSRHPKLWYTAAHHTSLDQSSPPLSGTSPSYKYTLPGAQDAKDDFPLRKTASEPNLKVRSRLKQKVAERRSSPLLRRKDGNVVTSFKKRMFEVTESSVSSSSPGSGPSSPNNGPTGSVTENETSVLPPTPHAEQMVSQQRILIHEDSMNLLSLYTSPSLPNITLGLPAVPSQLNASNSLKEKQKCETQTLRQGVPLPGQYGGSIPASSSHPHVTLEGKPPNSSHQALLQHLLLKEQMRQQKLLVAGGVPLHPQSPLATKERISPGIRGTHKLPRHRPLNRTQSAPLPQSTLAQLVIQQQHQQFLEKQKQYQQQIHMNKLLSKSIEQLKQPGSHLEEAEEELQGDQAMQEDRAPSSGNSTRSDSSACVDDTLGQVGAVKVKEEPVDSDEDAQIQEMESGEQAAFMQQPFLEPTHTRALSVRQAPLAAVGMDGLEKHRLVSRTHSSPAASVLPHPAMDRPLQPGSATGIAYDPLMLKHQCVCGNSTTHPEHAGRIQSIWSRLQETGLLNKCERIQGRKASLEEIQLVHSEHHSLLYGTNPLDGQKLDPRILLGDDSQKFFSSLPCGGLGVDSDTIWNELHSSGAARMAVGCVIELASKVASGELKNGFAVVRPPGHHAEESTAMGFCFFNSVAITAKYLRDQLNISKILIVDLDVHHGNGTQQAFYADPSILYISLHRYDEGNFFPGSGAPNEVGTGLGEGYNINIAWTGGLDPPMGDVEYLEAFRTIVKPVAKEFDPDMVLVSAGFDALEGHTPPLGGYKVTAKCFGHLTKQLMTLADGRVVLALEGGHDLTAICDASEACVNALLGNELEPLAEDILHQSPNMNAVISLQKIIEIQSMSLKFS
In plain terms, pIC50 is the concentration in mol/L turned into minus its base-10 logarithm.

COc1cc2nc(-c3ccc(C)o3)cc(NCC3CCN(c4ncc(C(=O)NO)cn4)CC3)c2cc1OC	7.05

What pIC50 appears in the records for this molecule with HDAC9 (Homo sapiens, UniProt Q9UKV0)? COc1cc2nc(-c3cc(C)oc3C)cc(NCC3CCN(c4ncc(C(=O)NO)cn4)CC3)c2cc1OC
7.04

* * *

Test Target: DNMT1 (Homo sapiens)
Sequence (P26358 whole entry): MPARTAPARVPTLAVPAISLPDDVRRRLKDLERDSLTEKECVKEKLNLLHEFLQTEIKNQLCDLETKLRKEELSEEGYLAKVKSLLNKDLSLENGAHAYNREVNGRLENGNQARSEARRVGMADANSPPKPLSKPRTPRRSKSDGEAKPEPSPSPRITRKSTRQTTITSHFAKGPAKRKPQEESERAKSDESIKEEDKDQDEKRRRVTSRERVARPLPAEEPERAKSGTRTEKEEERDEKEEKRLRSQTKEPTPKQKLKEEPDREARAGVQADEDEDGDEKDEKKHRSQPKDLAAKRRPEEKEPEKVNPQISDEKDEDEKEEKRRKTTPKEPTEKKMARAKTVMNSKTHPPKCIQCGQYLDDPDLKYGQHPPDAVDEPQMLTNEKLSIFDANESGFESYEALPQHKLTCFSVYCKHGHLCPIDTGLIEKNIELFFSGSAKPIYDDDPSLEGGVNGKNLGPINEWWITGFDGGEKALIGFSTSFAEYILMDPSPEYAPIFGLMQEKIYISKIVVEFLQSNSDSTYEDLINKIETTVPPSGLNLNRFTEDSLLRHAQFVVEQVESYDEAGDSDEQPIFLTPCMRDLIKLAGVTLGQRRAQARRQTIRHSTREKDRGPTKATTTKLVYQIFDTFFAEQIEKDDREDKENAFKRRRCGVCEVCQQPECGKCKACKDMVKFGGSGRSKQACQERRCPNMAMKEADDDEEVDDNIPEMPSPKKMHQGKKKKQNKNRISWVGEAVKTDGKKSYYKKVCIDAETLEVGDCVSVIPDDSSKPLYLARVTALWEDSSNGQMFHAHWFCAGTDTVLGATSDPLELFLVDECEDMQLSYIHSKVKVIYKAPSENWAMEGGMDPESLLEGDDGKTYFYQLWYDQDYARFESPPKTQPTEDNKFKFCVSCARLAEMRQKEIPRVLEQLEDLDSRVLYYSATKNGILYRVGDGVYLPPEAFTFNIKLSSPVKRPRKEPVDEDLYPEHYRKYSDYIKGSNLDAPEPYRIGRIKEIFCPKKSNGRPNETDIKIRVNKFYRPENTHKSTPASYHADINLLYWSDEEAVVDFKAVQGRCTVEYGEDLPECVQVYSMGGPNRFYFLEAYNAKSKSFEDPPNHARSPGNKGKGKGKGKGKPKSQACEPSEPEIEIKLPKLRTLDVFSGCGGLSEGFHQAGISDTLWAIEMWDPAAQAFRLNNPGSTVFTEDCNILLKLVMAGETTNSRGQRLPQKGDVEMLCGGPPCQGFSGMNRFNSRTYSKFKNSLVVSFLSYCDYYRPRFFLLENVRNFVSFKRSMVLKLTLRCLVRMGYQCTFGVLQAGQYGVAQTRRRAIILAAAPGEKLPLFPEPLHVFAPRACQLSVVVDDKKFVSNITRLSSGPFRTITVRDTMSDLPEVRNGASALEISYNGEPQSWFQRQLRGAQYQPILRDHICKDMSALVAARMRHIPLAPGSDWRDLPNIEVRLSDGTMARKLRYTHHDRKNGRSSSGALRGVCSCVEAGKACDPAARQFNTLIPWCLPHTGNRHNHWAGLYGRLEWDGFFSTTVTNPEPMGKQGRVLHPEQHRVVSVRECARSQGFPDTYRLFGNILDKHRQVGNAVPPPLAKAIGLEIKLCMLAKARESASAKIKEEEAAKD
Assay Explanation: Epigenetic panel (BPS Bioscience); DNMT1 TR-FRET IC50
Format: biochemical
Reported Conditions: as printed in Fig. 1B; read-out: IC50
Value Kind: pIC50
Field pIC50 (float): negative decimal logarithm of the concentration in molar.

What value of measured pIC50 is listed for COc1cc2nc(-c3ccc(C)o3)cc(NCC3CCN(c4ncc(C(=O)NO)cn4)CC3)c2cc1OC [CM-444] ?
5.66

* * *

Test Target: HDAC1 (Homo sapiens, UniProt Q13547)
Sequence (Q13547 whole entry): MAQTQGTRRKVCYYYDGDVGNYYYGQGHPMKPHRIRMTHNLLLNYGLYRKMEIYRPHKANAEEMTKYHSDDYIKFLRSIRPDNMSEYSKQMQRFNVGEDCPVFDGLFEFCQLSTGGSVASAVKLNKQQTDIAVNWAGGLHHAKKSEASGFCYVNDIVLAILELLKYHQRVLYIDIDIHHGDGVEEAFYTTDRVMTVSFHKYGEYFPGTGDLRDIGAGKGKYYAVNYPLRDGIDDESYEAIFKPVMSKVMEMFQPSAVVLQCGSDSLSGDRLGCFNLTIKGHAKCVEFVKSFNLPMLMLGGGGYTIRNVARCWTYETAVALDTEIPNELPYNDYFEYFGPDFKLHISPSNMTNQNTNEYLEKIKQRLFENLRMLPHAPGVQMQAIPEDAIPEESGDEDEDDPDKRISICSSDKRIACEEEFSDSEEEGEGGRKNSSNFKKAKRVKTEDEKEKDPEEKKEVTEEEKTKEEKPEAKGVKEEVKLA
Assay Explanation: HDAC enzymatic assay, fluorescence-labeled substrate
Format: biochemical
Reported Conditions: read-out: HDAC1 IC50
Recorded IC50, one value per entry.

COc1cc2nc(-c3cc(C)oc3C)cc(NCC3CCN(c4ncc(C(=O)NO)cn4)CC3)c2cc1OC [CM-1758]	0.00432 µM

Consider the compound COc1cc2c(NCC3CCN(C)CC3)cc(-c3ccc(C)o3)nc2cc1OCCCN1CCCC1 [CM-579] and give its measured IC50.
> 20 µM

Recorded IC50 of COc1cc2c(NC3CCN(C)CC3)cc(-c3ccc(C)o3)nc2cc1OCCCN1CCCC1 [CM-272] , please.
> 20 µM

* * *

Test system: ML-2
Assay Explanation: Acetylome analysis (Acetyl-K enrichment, LC-MS/MS)
Type: cell-based, human
Reported Conditions: distribution of acetylated sites in the acetylated proteins (Fig 4D)
Value Kind: Number of proteins with 2 Acetyl-K sites per protein
Output: the number by itself.

Worked examples follow.
COc1cc2nc(-c3ccc(C)o3)cc(NCC3CCN(c4ncc(C(=O)NO)cn4)CC3)c2cc1OC [CM-444]	79
Cc1[nH]c2ccccc2c1CCNCc1ccc(/C=C/C(=O)NO)cc1 [Panobinostat, reference compound]	56
O=C(CCCCCCC(=O)Nc1ccccc1)NO [Vorinostat, reference compound]	54

Moving on to another molecule below.
Recall the recorded Number of proteins with 2 Acetyl-K sites per protein for COc1cc2nc(-c3cc(C)oc3C)cc(NCC3CCN(c4ncc(C(=O)NO)cn4)CC3)c2cc1OC [CM-1758] with ML-2 and state it.
73

* * *

Listed here: items and their measured Acetyl-K sites, Down-regulated.
Tested on: ML-2
Assay Explanation: Acetylome analysis (Acetyl-K enrichment, LC-MS/MS)
Type: cell-based, human
Reported Conditions: ML-2, 25% GI50, 12 h, Fig. 4C
Enter a number only.

Worked cases, Acetyl-K sites, Down-regulated given:
O=C(CCCCCCC(=O)Nc1ccccc1)NO [Vorinostat, reference compound]	232
Cc1[nH]c2ccccc2c1CCNCc1ccc(/C=C/C(=O)NO)cc1 [Panobinostat, reference compound]	322
COc1cc2nc(-c3cc(C)oc3C)cc(NCC3CCN(c4ncc(C(=O)NO)cn4)CC3)c2cc1OC [CM-1758]	395

From here, focus on the item given below.
Please look up its Acetyl-K sites, Down-regulated: COc1cc2nc(-c3ccc(C)o3)cc(NCC3CCN(c4ncc(C(=O)NO)cn4)CC3)c2cc1OC [CM-444]
429
